# credit: paper PMC3525873

Assign IC50 to each entry below.
assayed system: TRPC6 (Mus musculus, UniProt Q61143)
Sequence (Q61143 whole entry): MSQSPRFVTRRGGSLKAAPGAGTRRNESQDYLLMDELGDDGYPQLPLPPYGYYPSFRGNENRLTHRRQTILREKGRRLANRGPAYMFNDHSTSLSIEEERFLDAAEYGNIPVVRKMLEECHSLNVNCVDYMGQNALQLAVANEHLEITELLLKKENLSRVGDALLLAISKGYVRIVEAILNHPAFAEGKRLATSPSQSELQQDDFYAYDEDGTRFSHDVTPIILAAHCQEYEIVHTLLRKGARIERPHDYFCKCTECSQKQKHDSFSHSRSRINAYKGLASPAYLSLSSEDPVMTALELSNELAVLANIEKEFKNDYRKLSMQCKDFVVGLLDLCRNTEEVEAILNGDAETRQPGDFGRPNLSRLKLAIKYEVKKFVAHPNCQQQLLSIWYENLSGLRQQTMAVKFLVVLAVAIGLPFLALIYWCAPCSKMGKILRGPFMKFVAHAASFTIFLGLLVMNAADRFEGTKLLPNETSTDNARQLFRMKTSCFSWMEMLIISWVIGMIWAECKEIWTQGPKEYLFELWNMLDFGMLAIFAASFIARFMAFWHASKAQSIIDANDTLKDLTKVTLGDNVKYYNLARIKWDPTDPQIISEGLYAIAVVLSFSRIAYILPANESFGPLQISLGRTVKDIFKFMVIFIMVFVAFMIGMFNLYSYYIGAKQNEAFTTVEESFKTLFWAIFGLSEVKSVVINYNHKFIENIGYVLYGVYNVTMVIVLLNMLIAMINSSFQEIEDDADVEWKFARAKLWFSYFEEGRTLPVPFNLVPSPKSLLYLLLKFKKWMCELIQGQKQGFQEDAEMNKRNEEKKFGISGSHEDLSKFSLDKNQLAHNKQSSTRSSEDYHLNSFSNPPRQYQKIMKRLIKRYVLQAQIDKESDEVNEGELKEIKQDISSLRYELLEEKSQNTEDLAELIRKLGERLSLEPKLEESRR
experiment: Fura-2 Ca2+ entry in HEK293 cells overexpressing GFP-TRPC6
Format: cell-based, murine

Record O=C(Nc1ccc(-n2nc(C(F)(F)F)cc2C(F)(F)F)cc1)c1ccncc1F [Pyr6] has TRPC6 (Mus musculus, UniProt Q61143) IC50 equal to > 10 µM

Record Cc1ccc(S(=O)(=O)Nc2ccc(-n3nc(C(F)(F)F)cc3C(F)(F)F)cc2)cc1 [Pyr10] has TRPC6 (Mus musculus, UniProt Q61143) IC50 equal to > 10 µM

---

assayed system: TRPC4beta (Homo sapiens)
Sequence (Q9UBN4 1-893 isoform Q9UBN4-2): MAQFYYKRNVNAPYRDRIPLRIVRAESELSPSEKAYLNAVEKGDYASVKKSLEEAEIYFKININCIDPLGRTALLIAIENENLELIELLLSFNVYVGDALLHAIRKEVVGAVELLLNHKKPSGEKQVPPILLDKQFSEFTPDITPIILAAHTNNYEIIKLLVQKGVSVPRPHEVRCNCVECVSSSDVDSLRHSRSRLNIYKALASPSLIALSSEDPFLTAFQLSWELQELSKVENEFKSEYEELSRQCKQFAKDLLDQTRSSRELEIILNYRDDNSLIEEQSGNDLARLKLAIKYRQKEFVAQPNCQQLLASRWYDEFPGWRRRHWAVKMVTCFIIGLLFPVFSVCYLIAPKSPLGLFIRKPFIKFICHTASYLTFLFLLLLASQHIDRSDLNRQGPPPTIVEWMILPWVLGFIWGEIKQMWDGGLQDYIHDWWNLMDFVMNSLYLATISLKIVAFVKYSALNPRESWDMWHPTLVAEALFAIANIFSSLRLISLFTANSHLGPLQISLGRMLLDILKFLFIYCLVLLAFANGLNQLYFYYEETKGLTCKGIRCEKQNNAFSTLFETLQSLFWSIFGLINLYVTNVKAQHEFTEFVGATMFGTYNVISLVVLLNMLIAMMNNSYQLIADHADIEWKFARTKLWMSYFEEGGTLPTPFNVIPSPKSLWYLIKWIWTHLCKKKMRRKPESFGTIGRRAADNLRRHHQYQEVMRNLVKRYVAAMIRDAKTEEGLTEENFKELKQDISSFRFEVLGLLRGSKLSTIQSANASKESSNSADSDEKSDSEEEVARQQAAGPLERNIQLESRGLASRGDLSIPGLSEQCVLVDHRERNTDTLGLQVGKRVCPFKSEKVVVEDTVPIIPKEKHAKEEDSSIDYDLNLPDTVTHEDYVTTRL
experiment: Fura-2 Ca2+ entry in HEK293 cells overexpressing TRPC4beta-YFP
Format: cell-based
Assign IC50 to each entry below.

Looking up O=C(Nc1ccc(-n2nc(C(F)(F)F)cc2C(F)(F)F)cc1)c1ccncc1F , I found its IC50 recorded as > 10 µM

Looking up Cc1ccc(S(=O)(=O)Nc2ccc(-n3nc(C(F)(F)F)cc3C(F)(F)F)cc2)cc1 , I found its IC50 recorded as > 10 µM
